- experimental-system: CDK2 (human)
- protocol: Enzyme Assay
- details: concentration not given here
property: inhibition (%)

COc1ccc(C(O)C(=O)N2CCC(Nc3nc(N)c(C(=O)c4c(F)cccc4F)s3)CC2)cc1O (configuration not stated)
58
CCC(C)(O)C(=O)N1CCC(Nc2nc(N)c(C(=O)c3c(F)cccc3F)s2)CC1 (configuration not stated)
25
C[C@](O)(C(=O)N1CCC(Nc2nc(N)c(C(=O)c3c(F)cccc3F)s2)CC1)c1ccccc1
77

I: Nc1nc(NC2CCN(C(=O)/C=C/c3cccc(Cl)c3)CC2)sc1C(=O)c1c(F)cccc1F
II: CO[C@@H](C(=O)N1CCC(Nc2nc(N)c(C(=O)c3c(F)cccc3F)s2)CC1)c1ccccc1
III: Nc1nc(NC2CCN(C(=O)C3CC(=O)c4ccccc43)CC2)sc1C(=O)c1c(F)cccc1F (configuration not stated)
IV: COc1ccc(C2(C(=O)N3CCC(Nc4nc(N)c(C(=O)c5c(F)cccc5F)s4)CC3)CC2)cc1
Enquiry: Order each entry by recorded inhibition, climbing from the minimum. Arrange the labels as the request states and list them.
Return: I, IV, II, III
(I: 24%, IV: 37%, II: 54%, III: 79%)

I: Nc1nc(NC2CCN(C(=O)[C@@H](O)C3CCCCC3)CC2)sc1C(=O)c1c(F)cccc1F
II: Nc1nc(NC2CCN(C(=O)/C=C/c3cc(O)ccc3O)CC2)sc1C(=O)c1c(F)cccc1F
Enquiry: Could you please tell me which of these two has the higher inhibition: I or II ? Your answer should be the label of the entry you select.
Return: II
(II: 80%, I: 51%)

I: CCC(O)C(=O)N1CCC(Nc2nc(N)c(C(=O)c3c(F)cccc3F)s2)CC1 (configuration not stated)
II: Nc1nc(NC2CCN(C(=O)[C@H]3CCC(=O)O3)CC2)sc1C(=O)c1c(F)cccc1F
Enquiry: Could you please tell me which of these two has the higher inhibition: I or II ? Your answer should be the label of the entry you select.
Return: II
(II: 76%, I: 48%)

P: COc1ccc(C(O)C(=O)N2CCC(Nc3nc(N)c(C(=O)c4c(F)cccc4F)s3)CC2)cc1 (configuration not stated)
Q: CC(=O)N(C)CC(=O)N1CCC(Nc2nc(N)c(C(=O)c3c(F)cccc3F)s2)CC1
R: CN(C)c1ccc(N=Nc2ccc(S(=O)(=O)N3CCC(Nc4nc(N)c(C(=O)c5c(F)cccc5F)s4)CC3)cc2)cc1
Enquiry: # sort list by recorded inhibition, greatest to least Arrange the labels as the request states and list them.
Return: P, Q, R
(P: 58%, Q: 40%, R: -20%)

All values here come from the Kinase Knowledgebase extract (Sharma et al. 2016).
